# Experimental system: Dimer of Gag-Pol polyprotein [489-587] (Human immunodeficiency virus 1, UniProt P12497)
# Construct: 489-587
# Measurement description: Protease Inhibition Assay
Assay endpoint: IC50
Please state the value followed by its unit.

For orientation, consider the following solved cases.
>  <Query smiles>
Cc1c(O)cc(F)cc1C(=O)N[C@@H](Cc1ccc2sccc2c1)[C@H](O)C(=O)N1C[C@@H](Cl)C[C@H]1C(=O)NC(C)(C)C

>  <Assay endpoint>
IC50

>  <Value observed>
1.9 nM

$$$$
>  <Query smiles>
Cc1c(O)cccc1C(=O)N[C@@H](Cc1cccc2ccccc12)[C@H](O)C(=O)N1C[C@@H](Cl)C[C@H]1C(=O)NC(C)(C)C

>  <Assay endpoint>
IC50

>  <Value observed>
1.5 nM

$$$$
>  <Query smiles>
Cc1c(O)cccc1C(=O)N[C@@H](Cc1cccc(F)c1)[C@H](O)C(=O)N1C[C@@H](Cl)C[C@H]1C(=O)NC(C)(C)C

>  <Assay endpoint>
IC50

>  <Value observed>
0.6 nM

$$$$
>  <Query smiles>
Cc1c(O)cccc1C(=O)N[C@@H](Cc1ccc(-c2ccccc2)cc1)[C@H](O)C(=O)N1C[C@@H](Cl)C[C@H]1C(=O)NC(C)(C)C

>  <Assay endpoint>
IC50

>  <Value observed>
0.9 nM

$$$$
>  <Query smiles>
Cc1c(O)cccc1C(=O)N[C@@H](Cc1ccc(F)cc1F)[C@H](O)C(=O)N1C[C@@H](Cl)C[C@H]1C(=O)NC(C)(C)C

>  <Assay endpoint>
IC50

>  <Value observed>
1.6 nM

$$$$

## Task Please report the recorded IC50 for `Cc1ccc(C(=O)N[C@@H](Cc2ccc3ccccc3c2)[C@H](O)C(=O)N2C[C@@H](Cl)C[C@H]2C(=O)NC(C)(C)C)c(C)c1O` .
## Result 3.2 nM

## Task Same question for `Cc1ccc(C(=O)N[C@@H](Cc2cccc(C(F)(F)F)c2)[C@H](O)C(=O)N2C[C@@H](Cl)C[C@H]2C(=O)NC(C)(C)C)c(C)c1O` please.
## Result 3.5 nM

## Task Same question for `Cc1ccccc1C[C@H](NC(=O)c1ccc(C)c(O)c1C)[C@H](O)C(=O)N1C[C@@H](Cl)C[C@H]1C(=O)NC(C)(C)C` please.
## Result 49.9 nM

## Task Same question for `Cc1c(O)cccc1C(=O)N[C@@H](Cc1ccc(C(F)(F)F)cc1)[C@H](O)C(=O)N1C[C@@H](Cl)C[C@H]1C(=O)NC(C)(C)C` please.
## Result 0.6 nM

## Task Same question for `Cc1ccccc1C[C@H](NC(=O)c1cccc(O)c1C)[C@H](O)C(=O)N1C[C@@H](Cl)C[C@H]1C(=O)NC(C)(C)C` please.
## Result 4.5 nM

## Task Same question for `Cc1cc(O)c(C)c(C(=O)N[C@@H](Cc2ccccc2)[C@H](O)C(=O)N2C[C@@H](Cl)C[C@H]2C(=O)NC(C)(C)C)c1` please.
## Result 1.3 nM

## Task Same question for `Cc1c(O)cc(F)cc1C(=O)N[C@@H](Cc1cccc(C(F)(F)F)c1)[C@H](O)C(=O)N1C[C@@H](Cl)C[C@H]1C(=O)NC(C)(C)C` please.
## Result 2.1 nM

## Task Same question for `Cc1ccc(O)c(C)c1C(=O)N[C@@H](Cc1ccc(C(F)(F)F)cc1)[C@H](O)C(=O)N1C[C@@H](Cl)C[C@H]1C(=O)NC(C)(C)C` please.
## Result 3.9 nM

## Task Same question for `Cc1c(O)cc(F)cc1C(=O)N[C@@H](Cc1ccccc1)[C@H](O)C(=O)N1C[C@@H](Cl)C[C@H]1C(=O)NC(C)(C)C` please.
## Result 1.7 nM

## Task Same question for `Cc1c(O)cccc1C(=O)N[C@@H](Cc1ccc(F)c(F)c1)[C@H](O)C(=O)N1C[C@@H](Cl)C[C@H]1C(=O)NC(C)(C)C` please.
## Result 0.8 nM

## Task Same question for `Cc1cc(O)c(C)c(C(=O)N[C@@H](Cc2cc(F)cc(F)c2)[C@H](O)C(=O)N2C[C@@H](Cl)C[C@H]2C(=O)NC(C)(C)C)c1` please.
## Result 1.2 nM

## Task Same question for `Cc1ccc(C(=O)N[C@@H](Cc2ccc(C(F)(F)F)cc2)[C@H](O)C(=O)N2C[C@@H](Cl)C[C@H]2C(=O)NC(C)(C)C)c(C)c1O` please.
## Result 6.3 nM

## Task Same question for `Cc1ccc(C[C@H](NC(=O)c2ccc(C)c(O)c2C)[C@H](O)C(=O)N2C[C@@H](Cl)C[C@H]2C(=O)NC(C)(C)C)cc1` please.
## Result 8.6 nM

## Task Same question for `Cc1ccc(C[C@H](NC(=O)c2cccc(O)c2C)[C@H](O)C(=O)N2C[C@@H](Cl)C[C@H]2C(=O)NC(C)(C)C)cc1C` please.
## Result 1.2 nM

## Task Same question for `Cc1c(O)cccc1C(=O)N[C@@H](Cc1ccccc1)[C@H](O)C(=O)N1C[C@@H](Cl)C[C@H]1C(=O)NC(C)(C)C` please.
## Result 0.9 nM

## Task Same question for `COc1ccc(C[C@H](NC(=O)c2cccc(O)c2C)[C@H](O)C(=O)N2C[C@@H](Cl)C[C@H]2C(=O)NC(C)(C)C)cc1` please.
## Result 0.9 nM

## Task Same question for `Cc1c(O)cccc1C(=O)N[C@@H](Cc1ccc(O)cc1)[C@H](O)C(=O)N1C[C@@H](Cl)C[C@H]1C(=O)NC(C)(C)C` please.
## Result 1.3 nM

## Task Same question for `Cc1ccc(C(=O)N[C@@H](Cc2ccccc2)[C@H](O)C(=O)N2C[C@@H](Cl)C[C@H]2C(=O)NC(C)(C)C)c(C)c1O` please.
## Result 8.2 nM

* * *

# Experimental system: Dimer of Gag-Pol polyprotein [489-587] (Human immunodeficiency virus 1, UniProt P12497)
# Construct: 489-587
# Measurement description: Protease Inhibition Assay
Known pIC50 of a selection of compounds
pIC50 field: float, defined as -log10 of concentration (mol/L).

For orientation, consider the following solved cases.
>  <Query smiles>
Cc1ccc(C[C@H](NC(=O)c2cccc(O)c2C)[C@H](O)C(=O)N2C[C@@H](Cl)C[C@H]2C(=O)NC(C)(C)C)cc1

>  <Experimental system>
Dimer of Gag-Pol polyprotein [489-587] (Human immunodeficiency virus 1, UniProt P12497)

>  <Value observed>
9.05

$$$$
>  <Query smiles>
Cc1c(O)cccc1C(=O)N[C@@H](Cc1ccc2sccc2c1)[C@H](O)C(=O)N1C[C@@H](Cl)C[C@H]1C(=O)NC(C)(C)C

>  <Experimental system>
Dimer of Gag-Pol polyprotein [489-587] (Human immunodeficiency virus 1, UniProt P12497)

>  <Value observed>
8.85

$$$$

Please examine the following record next.
## Task Please report the recorded pIC50 for `Cc1c(O)cccc1C(=O)N[C@@H](Cc1ccc(F)cc1)[C@H](O)C(=O)N1C[C@@H](Cl)C[C@H]1C(=O)NC(C)(C)C` .
## Result 9.05

* * *

Known log10(IC50) of a selection of compounds
# Experimental system: Dimer of Gag-Pol polyprotein [489-587] (Human immunodeficiency virus 1, UniProt P12497)
# Construct: 489-587
# Measurement description: Protease Inhibition Assay
Note: values are log10 of IC50 expressed in nM.

>  <Query smiles>
Cc1cccc(C[C@H](NC(=O)c2cc(C)cc(O)c2C)[C@H](O)C(=O)N2C[C@@H](Cl)C[C@H]2C(=O)NC(C)(C)C)c1

>  <Value observed>
0.11

$$$$
>  <Query smiles>
Cc1c(O)cccc1C(=O)N[C@@H](CCc1ccccc1)[C@H](O)C(=O)N1C[C@@H](Cl)C[C@H]1C(=O)NC(C)(C)C

>  <Value observed>
0.15

$$$$
>  <Query smiles>
Cc1c(O)cccc1C(=O)N[C@@H](Cc1ccccc1F)[C@H](O)C(=O)N1C[C@@H](Cl)C[C@H]1C(=O)NC(C)(C)C

>  <Value observed>
-0.15

$$$$
>  <Query smiles>
Cc1cc(O)c(C)c(C(=O)N[C@@H](Cc2ccc3ccccc3c2)[C@H](O)C(=O)N2C[C@@H](Cl)C[C@H]2C(=O)NC(C)(C)C)c1

>  <Value observed>
-0.10

$$$$
>  <Query smiles>
Cc1c(O)cccc1C(=O)N[C@@H](Cc1cccc(C(F)(F)F)c1)[C@H](O)C(=O)N1C[C@@H](Cl)C[C@H]1C(=O)NC(C)(C)C

>  <Value observed>
-0.30

$$$$

## Task Please report the recorded log10(IC50) for `Cc1c(O)cccc1C(=O)N[C@@H](Cc1cc(F)cc(F)c1)[C@H](O)C(=O)N1C[C@@H](Cl)C[C@H]1C(=O)NC(C)(C)C` .
## Result -0.10

## Task Same question for `Cc1cc(O)c(C)c(C(=O)N[C@@H](Cc2cccc(C(F)(F)F)c2)[C@H](O)C(=O)N2C[C@@H](Cl)C[C@H]2C(=O)NC(C)(C)C)c1` please.
## Result 0.28

## Task Same question for `Cc1cc(O)c(C)c(C(=O)N[C@@H](Cc2ccc(-c3ccccc3)cc2)[C@H](O)C(=O)N2C[C@@H](Cl)C[C@H]2C(=O)NC(C)(C)C)c1` please.
## Result 0.11

## Task Same question for `Cc1c(O)cccc1C(=O)N[C@@H](Cc1ccc2ccccc2c1)[C@H](O)C(=O)N1C[C@@H](Cl)C[C@H]1C(=O)NC(C)(C)C` please.
## Result 0.00

## Task Same question for `Cc1c(O)cc(F)cc1C(=O)N[C@@H](Cc1ccc2ccccc2c1)[C@H](O)C(=O)N1C[C@@H](Cl)C[C@H]1C(=O)NC(C)(C)C` please.
## Result 0.08

## Task Same question for `Cc1cccc(C[C@H](NC(=O)c2c(C)ccc(O)c2C)[C@H](O)C(=O)N2C[C@@H](Cl)C[C@H]2C(=O)NC(C)(C)C)c1` please.
## Result 0.53

## Task Same question for `Cc1cccc(C[C@H](NC(=O)c2cccc(O)c2C)[C@H](O)C(=O)N2C[C@@H](Cl)C[C@H]2C(=O)NC(C)(C)C)c1` please.
## Result -0.22

## Task Same question for `Cc1ccc(C[C@H](NC(=O)c2c(C)ccc(O)c2C)[C@H](O)C(=O)N2C[C@@H](Cl)C[C@H]2C(=O)NC(C)(C)C)cc1` please.
## Result 0.56

## Task Same question for `Cc1ccccc1C[C@H](NC(=O)c1c(C)ccc(O)c1C)[C@H](O)C(=O)N1C[C@@H](Cl)C[C@H]1C(=O)NC(C)(C)C` please.
## Result 1.54
